FYI, the data here is from ChEMBL document CHEMBL1137637.

System: L6
methodSummary: Cytotoxicity against rat L6 cells after 72 hrs by resazurin assay
Format: cell-based
assayConditions: L6, 72 h
Entries annotated with measured log10 IC50
For clarity, the numbers are log10 values of IC50 expressed in µM.

CC(=O)c1ccc(C#CC2(O)CN3CCC2CC3)s1 (centres undefined) : 2.29
C1=C(c2ccc(OCc3ccccc3)cc2)C2CCN1CC2 : 1.67
C1=C(c2ccc3ccccc3c2)C2CCN1CC2 : 2.00

Query: Given c1ccc(-c2ccc(CC3CN4CCC3CC4)cc2)cc1 (centres undefined) , state its recorded log10 IC50.
Result: 1.31

Query: Request the reported log10 IC50 associated with OC[C@@H]1CC2CCN1C[C@@H]2C#Cc1ccc(OCc2ccccc2)cc1 (some centres undefined)
Result: 1.21

---

# IC50 values compiled below
Test system: Trypanosoma brucei rhodesiense
methodSummary: Trypanocidal activity against Trypanosoma brucei rhodesiense STIB 900 bloodstream form after 72 hrs by resazurin assay
Format: functional, organism-based
assayConditions: STIB 900, 72 h
Report as a plain number; the unit µM is understood.

Worked cases, IC50 given:
CCOC(=O)c1ccc(C#C[C@H]2CN3CCC2C[C@@H]3CO)cc1 (stereo partly drawn) : 3.8
C1=C(c2ccc3ccccc3c2)C2CCN1CC2 : 24.2
CC(=O)c1ccc(C#CC2(O)CN3CCC2CC3)s1 (stereo not drawn) : 30.3
O=C(O)c1ccc(C#CC2(O)CN3CCC2CC3)cc1 (stereo not drawn) : 146

Now let's try a different one.
Query: Which IC50 reading was recorded for the compound CC(C)(C)[Si](C)(C)Oc1ccc(C2=CN3CCC2CC3)cc1 ?
Result: 2.1

---

Below, each entry is listed with its recorded Activity.
System: Leishmania amazonensis
methodSummary: Inhibition of sterol biosynthesis in Leishmania mexicana amazonensis promastigotes assessed as reduction in endogenous cholesta-7,24-dien-3beta-ol level at 10 uM after 96 hrs by gas-liquid chromatography
Assay type: functional
Design: scale not given: the % may be the effect or the level left

Reference set, count: 3
OC[C@@H]1CC2CCN1C[C@@H]2C#Cc1ccccc1 (stereo not given in full) : 3.9%
c1ccc(CC2CN3CCC2CC3)cc1 (stereo not given) : 2.9%
OC[C@H]1CC2CCN1C[C@@H]2C#Cc1ccccc1 (stereo not given in full) : 2.7%

Query: Please tell me: Activity of CCOC(=O)Cc1ccc(C#C[C@H]2CN3CCC2C[C@H]3CO)cc1 (stereo not given in full) , system Leishmania amazonensis?
Result: 11.8%

Query: Give recorded Activity with Leishmania amazonensis for the following molecule: OC[C@@H]1CC2CCN1C[C@@H]2C#Cc1cnc2ccccc2c1 (stereo not given in full)
Result: 12.3%

Query: Param readout = Activity; param system = Leishmania amazonensis; param query = O=Cc1ccc(/C=C2\CN3CCC2CC3)cc1 ; response: value
Result: 4.6%

---

System: Leishmania amazonensis
methodSummary: Antileishmanial activity against Leishmania mexicana amazonensis promastigotes by trypan blue exclusion method
Format: functional, organism-based
readoutKind: IC50

Query: Param readout= IC50; system= Leishmania amazonensis; entry= CCOC(=O)Cc1ccc(C#C[C@H]2CN3CCC2C[C@H]3CO)cc1 (stereo partly specified) ; returns value.
Result: > 10 µM

---

System: Trypanosoma brucei rhodesiense
methodSummary: Trypanocidal activity against Trypanosoma brucei rhodesiense STIB 900 bloodstream form after 72 hrs by resazurin assay
Assay type: functional, organism-based
assayConditions: STIB 900, 72 h
Item-by-item account of pIC50
Conceptually, pIC50 converts a concentration in mol/L into minus its log10.

O=Cc1ccc(/C=C2\CN3CCC2CC3)cc1 : 4.88

Query: pIC50 lookup needed for C(=C1\CN2CCC1CC2)/c1ccc(C2OCCO2)cc1 , thanks.
Result: 4.99

Query: Given the compound CCOC(=O)c1ccc(C#CC2(O)CN3CCC2CC3)cc1 (configuration not stated) , what is its reported pIC50?
Result: 5.48

Query: Dear colleague, I am looking for the recorded pIC50 of the following compound: CCOC(=O)Cc1ccc(C#CC2(O)CN3CCC2CC3)cc1 (configuration not stated)
Result: 3.59

Query: May I ask what pIC50 has been recorded for CCOC(=O)Cc1ccc(C#C[C@H]2CN3CCC2C[C@H]3CO)cc1 (some centres not stated) ?
Result: 4.19

Query: Would you mind telling me what pIC50 value was observed for COc1ccc2cc(C3=CN4CCC3CC4)ccc2c1 ?
Result: 5.66
